Would you mind telling me the reported IC50, cyclin E/CDK2 kinase, GST-pRb of each entry?
Target: CDK2/Cyclin E complex (UniProt P24941 1-298; P24864 1-410)
Test: cell-based or functional assay
Ends that are not written are not given here.
Enter your answer as a number in µM; do not include the unit.

Sample DFYHSKRALIFS-NH2 [DFYHSKRALIFS-NH2] ; IC50, cyclin E/CDK2 kinase, GST-pRb observed: 30

Sample YHSKRRLIFSKR-NH2 [YHSKRRLIFSKR-NH2] ; IC50, cyclin E/CDK2 kinase, GST-pRb observed: 17.6

Sample DFYHSKRRLIFA-NH2 [DFYHSKRRLIFA-NH2] ; IC50, cyclin E/CDK2 kinase, GST-pRb observed: 5.4

Sample HSKRRLIFS-NH2 [HSKRRLIFS-NH2] ; IC50, cyclin E/CDK2 kinase, GST-pRb observed: 3.4

Sample AFYHSKRRLIFS-NH2 [AFYHSKRRLIFS-NH2] ; IC50, cyclin E/CDK2 kinase, GST-pRb observed: 11

Sample DFYHSARRLIFS-NH2 [DFYHSARRLIFS-NH2] ; IC50, cyclin E/CDK2 kinase, GST-pRb observed: 12.9

Sample DFYHSKR-NH2 [DFYHSKR-NH2] ; IC50, cyclin E/CDK2 kinase, GST-pRb observed: 200

Sample DFAHSKRRLIFS-NH2 [DFAHSKRRLIFS-NH2] ; IC50, cyclin E/CDK2 kinase, GST-pRb observed: 5.3

Sample DFYHSKRRL-NH2 [DFYHSKRRL-NH2] ; IC50, cyclin E/CDK2 kinase, GST-pRb observed: 200
